Target: SARS-CoV-2 full length Spike protein, wild type (SARS-CoV-2, UniProt P0DTC2 14-1208)
Where bead binding signal (fold over isotype) equals or exceeds 500 fold over isotype, the correct label is fulfilled; where it does not, the label is not fulfilled.

>  <binder>
antibody 340 (antibody, V domains shown) VH: QVQLVQSGAEVKKPGASVKVSCKASGYTFTSYDINWVRQATGQGLEWMGWMNPNSGNTGYAQKFQGRVTMTRNTSISTAYMELSSLRSEDTAVYYCARGRYCTGGVCWGDWYFDLWGRGTLVTVSS VL: QSVLTQPPSVSGAPGQRVTISCTGSSSNIGAGYDVHWYQQLPGTAPKFLIYGNSNRPSGVPDRFSGSKSGTSASLAITGLQAEDEADYYCQSYDSSLSGPVFGGGTKLTVL

>  <cat>
fulfilled

$$$$
>  <binder>
antibody 331 (antibody, V domains shown) V domain 1: QITLKESGPTLVKPTETLTLTCSFSGFSLTKTGEAAGWIRQAPGRALEWVTVIFWDDDKRYSPSLQNRISVTKDTSKNQVVLRMTNVARFDTGTYFCWAMGGPGKEYFGQGTLVAVSS V domain 2: QSVLTQPPSVSGAPGQRVTISCTGTSSSIGPYSDVHWYQHVSGKAPRLLIFGNSNRPSGVPDRFSGSKSGTSASLVIAGLQAEDEADYYCQSYDSSLGEIYVFGTGTTVTVL

>  <cat>
fulfilled

$$$$
>  <binder>
antibody 327 (antibody, V domains shown) VH: QVQLVESGGGVVQPGRSLRLSCAASGFNLSNYAMHWVRQASGKGLEWVSLISYDGSIKYYTDSVKGRFTVSGDNSKNTLFLQMNSLRPDDSALYYCVRGGVSGPNSFDMWGQGTTVTVSS VL: DVVMTQSPLSLPVTLGQPASISCRSSQSLVYSDGNTYVNWFQQRPGQSPRRLIYQVSIRASGVPDRFSGSGSGTDFALKISRVEAEDVGIYYCMQGTHWPVTFGQGTKVEIK

>  <cat>
not fulfilled

$$$$
>  <binder>
antibody 324 (antibody, V domains shown) VH: QVQLQESGPGLVKPSGTLSLTCAVSGGSISSSNWWSWVRQPPGKGLEWIGEIYHSGSTNYNPSLKSRVTISVDNSKNQFSLKLSSVTAADTAVYYCARESVAAAGISYYYYGMDVWGQGTTVTVSS VL: EIVLTQSPGTLSLSPGERATLSCRASQSVSGRYLAWYQQKPGQAPRLLIYGASSRATGIPDRFSGSGSGTDFTLTISRLEPEDFAVYYCQHYGSSPGTFGQGTRLEIK

>  <cat>
not fulfilled

$$$$
>  <binder>
antibody 328 (antibody, V domains shown) VH: QVQLQESGPGLVKPSGTLSLTCAVSGGSISSSNWWSWVRQPPGKGLEWIGEIYHSGSTNYNPSLKSRVTISVDNSKNQFSLKLSSVTAADTAVYYCARESVAAAGISYYYYGMDVWGQGTTVTVSS VL: DIQMTQSPSSLSASVGDRVTITCRASQGIRNDLGWYQQKPGKAPKRLIYAASSLQSGVPSRFSGSGSGTEFTLTVSGLQPEDFATYYCLQYNSSPLTFGGGTKVEIK

>  <cat>
not fulfilled

$$$$
>  <binder>
antibody 323 (antibody, V domains shown) VH: QVQLVQSGAEVKKPGASVKVSCKVSGYTLTELSMHWVRQAPGKGLEWMGGFDPEDGETIYAQKFQGRVTMTEDTSTDTAYMELSSLRSEDTAVYYCATSTIFAPGGWFDPWGQGTLVTVSS VL: QSALTQPASVSGSPGQSITISCTGTSSDVGSYNLVSWYQQHPGKAPKLMIYEVSKRPSGVSNRFSGSKSGNTASLTISGLQAEDEADYYCCSYAGSTHYVFGTGTKVTVL

>  <cat>
fulfilled

$$$$
